test: Half life in Sprague-Dawley rat at 10 mg/kg , po measured upto 24 hrs by LC-MS/MS analysis; format: ADME, organism-based; conditions: in vivo
recorded.metric: half-life (h)
Numbers only; they are read as h.

Recorded half-life of Cc1ncc(-c2ccc3nc(NC(=O)C4CC4)sc3c2)cc1NC(=O)OC1CCOCC1 , please.
1.7

====

target: UniProtKB P10635; assay: Inhibition of CYP2D6 (unknown origin) using dextromethorphan as cocktail probe substrate at 10 uM preincubated for 20 mins followed by substrate addition and measured after 20 mins by LC-MS/MS analysis relative to control; assay type: ADME; conditions: time 40 min
Sequence (P10635 whole entry): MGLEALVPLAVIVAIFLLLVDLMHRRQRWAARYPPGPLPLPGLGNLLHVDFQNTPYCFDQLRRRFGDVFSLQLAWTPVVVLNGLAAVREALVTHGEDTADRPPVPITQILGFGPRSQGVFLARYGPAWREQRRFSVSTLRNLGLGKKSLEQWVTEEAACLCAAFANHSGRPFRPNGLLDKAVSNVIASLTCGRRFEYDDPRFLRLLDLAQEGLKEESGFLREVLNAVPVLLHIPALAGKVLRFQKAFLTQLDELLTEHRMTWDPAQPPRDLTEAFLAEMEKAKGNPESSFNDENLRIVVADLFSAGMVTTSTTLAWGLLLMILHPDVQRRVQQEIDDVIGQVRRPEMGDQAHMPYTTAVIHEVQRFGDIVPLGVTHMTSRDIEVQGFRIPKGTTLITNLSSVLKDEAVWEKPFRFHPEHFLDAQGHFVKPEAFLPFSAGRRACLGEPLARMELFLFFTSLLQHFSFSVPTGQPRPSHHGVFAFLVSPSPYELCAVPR
recorded.metric: inhibition at 20 min, 10 µM (%)
Numbers only; they are read as %.

Recorded inhibition at 20 min, 10 µM of Cc1ncc(-c2ccc3nc(NC(=O)C4CC4)sc3c2)cc1NC(=O)OC1CCOCC1 , please.
21
